- Tested on: tet operator sequence
- procedure_summary: β-galactosidase activity of a tetracycline-regulated promoter in transformed E. coli with revTetR, in the presence and absence of anhydrotetracycline (atc)
- Type: cell-based, Escherichia coli
- experimental_setup: RevTetR isolate cultured in the presence of anhydrotetracycline (ATC)
- Protocol: The relative activity of revTetR repressors was determined at 28° C. and 37° C. for each clone by measuring β-galactosidase activity of a tetracycline-regulated promoter in transformed Escherichia coli in the presence and absence of the tetracycline analog, anhydrotetracycline (atc). The relative β-galactosidase activity was measured in standard Miller units and is presented as the percent of maximal expression as measured in the absence of Tet repressor. […]
Decision: β-Galactosidase Activity, Cultured With ATC beneath 3 gives yes; β-Galactosidase Activity, Cultured With ATC meeting or exceeding 3 gives no.

A record lists TetRrev4/6-17: revTetR(BD) G99R V99L L101I (protein, Modified tetracycline repressor, revTetR(BD) G99R V99L L101I) MSRLDKSKVINSALELLNEVGIEGLTTRKLAQKLGVEQPTLYWHVKNKRALLDALAVEILARHHDYSLPAAGESWQSFLRNNAMSFRRALLRYRDRAKLHIGTRPDEKQYDTVETQLRFMTENGFSLRDGLYAISAVSHFTLGAVLEQQEHTAALTDRPAAPDENLPPLLREALQIMDSDDGEQAFLHGLESLIRGFEVQLTALLQIV . Is its β-Galactosidase Activity, Cultured With ATC below 3?
yes

A record lists TetRrev29/17: revTetR(BD) L17S E23D (protein, Modified tetracycline repressor, revTetR(BD) L17S E23D) MSRLDKSKVINSALELSNEVGIDGLTTRKLAQKLGVEQPTLYWHVKNKRALLDALAVEILARHHDYSLPAAGESWQSFLRNNAMSFRRALLRYRDGAKVHLGTRPDEKQYDTVETQLRFMTENGFSLRDGLYAISAVSHFTLGAVLEQQEHTAALTDRPAAPDENLPPLLREALQIMDSDDGEQAFLHGLESLIRGFEVQLTALLQIV . Is its β-Galactosidase Activity, Cultured With ATC below 3?
yes

A record lists TetRrev28/31: revTetR(BD) A13A V20G G21R I22N G24G (protein, Modified tetracycline repressor, revTetR(BD) A13A V20G G21R I22N G24G) MSRLDKSKVINSALELLNEGRNEGLTTRKLAQKLGVEQPTLYWHVKNKRALLDALAVEILARHHDYSLPAAGESWQSFLRNNAMSFRRALLRYRDGAKVHLGTRPDEKQYDTVETQLRFMTENGFSLRDGLYAISAVSHFTLGAVLEQQEHTAALTDRPAAPDENLPPLLREALQIMDSDDGEQAFLHGLESLIRGFEVQLTALLQIV . Is its β-Galactosidase Activity, Cultured With ATC below 3?
yes

A record lists TetRrevAtc4-48: revTetR(BD) D53N A54S L55L A56P V57V A61A R62L (protein, Modified tetracycline repressor, revTetR(BD) D53N A54S L55L A56P V57V A61A R62L) MSRLDKSKVINSALELLNEVGIEGLTTRKLAQKLGVEQPTLYWHVKNKRALLNSLPPEILALHHDYSLPAAGESWQSFLRNNAMSFRRALLRYRDGAKVHLGTRPDEKQYDTVETQLRFMTENGFSLRDGLYAISAVSHFTLGAVLEQQEHTAALTDRPAAPDENLPPLLREALQIMDSDDGEQAFLHGLESLIRGFEVQLTALLQIV . Is its β-Galactosidase Activity, Cultured With ATC below 3?
no

A record lists TetRrev4/6-5: revTetR(BD) A54S V99R (protein, Modified tetracycline repressor, revTetR(BD) A54S V99R) MSRLDKSKVINSALELLNEVGIEGLTTRKLAQKLGVEQPTLYWHVKNKRALLDSLAVEILARHHDYSLPAAGESWQSFLRNNAMSFRRALLRYRDGAKRHLGTRPDEKQYDTVETQLRFMTENGFSLRDGLYAISAVSHFTLGAVLEQQEHTAALTDRPAAPDENLPPLLREALQIMDSDDGEQAFLHGLESLIRGFEVQLTALLQIV . Is its β-Galactosidase Activity, Cultured With ATC below 3?
no

A record lists TetRrevAF2/5: revTetR(BD) L14R E!9E D95H L101P (protein, Modified tetracycline repressor, revTetR(BD) L14R E!9E D95H L101P) MSRLDKSKVINSARELLNEVGIEGLTTRKLAQKLGVEQPTLYWHVKNKRALLDALAVEILARHHDYSLPAAGESWQSFLRNNAMSFRRALLRYRHGAKVHPGTRPDEKQYDTVETQLRFMTENGFSLRDGLYAISAVSHFTLGAVLEQQEHTAALTDRPAAPDENLPPLLREALQIMDSDDGEQAFLHGLESLIRGFEVQLTALLQIV . Is its β-Galactosidase Activity, Cultured With ATC below 3?
yes

A record lists TetRrevAF4/9: revTetR(BD) L16R E19D E23D D95G V99A G102G (protein, Modified tetracycline repressor, revTetR(BD) L16R E19D E23D D95G V99A G102G) MSRLDKSKVINSALERLNDVGIDGLTTRKLAQKLGVEQPTLYWHVKNKRALLDALAVEILARHHDYSLPAAGESWQSFLRNNAMSFRRALLRYRGGAKAHLGTRPDEKQYDTVETQLRFMTENGFSLRDGLYAISAVSHFTLGAVLEQQEHTAALTDRPAAPDENLPPLLREALQIMDSDDGEQAFLHGLESLIRGFEVQLTALLQIV . Is its β-Galactosidase Activity, Cultured With ATC below 3?
yes

A record lists TetRrevAF2/7: revTetR(BD) Y93C D95E A97T (protein, Modified tetracycline repressor, revTetR(BD) Y93C D95E A97T) MSRLDKSKVINSALELLNEVGIEGLTTRKLAQKLGVEQPTLYWHVKNKRALLDALAVEILARHHDYSLPAAGESWQSFLRNNAMSFRRALLRCREGTKVHLGTRPDEKQYDTVETQLRFMTENGFSLRDGLYAISAVSHFTLGAVLEQQEHTAALTDRPAAPDENLPPLLREALQIMDSDDGEQAFLHGLESLIRGFEVQLTALLQIV . Is its β-Galactosidase Activity, Cultured With ATC below 3?
yes

A record lists TetRrev96/99-18: revTetR(BD) G96T V99P (protein, Modified tetracycline repressor, revTetR(BD) G96T V99P) MSRLDKSKVINSALELLNEVGIEGLTTRKLAQKLGVEQPTLYWHVKNKRALLDALAVEILARHHDYSLPAAGESWQSFLRNNAMSFRRALLRYRDTAKPHLGTRPDEKQYDTVETQLRFMTENGFSLRDGLYAISAVSHFTLGAVLEQQEHTAALTDRPAAPDENLPPLLREALQIMDSDDGEQAFLHGLESLIRGFEVQLTALLQIV . Is its β-Galactosidase Activity, Cultured With ATC below 3?
no
